# method summary: Cytotoxicity against human HepG2 cells measured after 72 hrs by MTT assay
# Format: cell-based
test readout: CC50 at 72 h (µM)
A number alone suffices; assume µM.

Problem: Give its CC50 at 72 h value. Item: O=[N+]([O-])c1ccc(COc2nc(C(Cl)(Cl)Cl)nc3ccccc23)cc1
Result: 34.9

Problem: Consider the compound C#CC(Oc1nc(C(Cl)(Cl)Cl)nc2ccccc12)c1ccccc1 (configuration not stated) and give its measured CC50 at 72 h.
Result: 24.6

Problem: Consider the compound Fc1c(F)c(F)c(Oc2nc(C(Cl)(Cl)Cl)nc3ccccc23)c(F)c1F and give its measured CC50 at 72 h.
Result: 43.7

Problem: Quick one: CC50 at 72 h of O=Cc1ccccc1Oc1nc(C(Cl)(Cl)Cl)nc2ccccc12 ?
Result: 75

Problem: Could you tell me which CC50 at 72 h is on file for CC(=O)c1ccccc1Oc1nc(C(Cl)(Cl)Cl)nc2ccccc12 ?
Result: 40

More entries:
Problem: Using the record for N#CC(Oc1nc(C(Cl)(Cl)Cl)nc2ccccc12)c1ccccc1 (configuration not stated) , report its CC50 at 72 h.
Result: 25.7

Problem: Reported CC50 at 72 h, compound ClC(Cl)(Cl)c1nc(Oc2cccc(Br)c2)c2ccccc2n1 : ____
Result: 36.7
